B1: Chromodomain-helicase-DNA-binding protein 7, residues 2564 to 2605; numbered along this chain, Q9P2D1 (parent)
chain: DPDTRIPVINLEDGTRLVGEDAPKNKDLVEWLKLHPTYTVDM

Variants of: B1
protocol-description: abundance fitness (aPCA) (normalised: wild type 0, dead -1); higher = more abundant; growth selection in yeast, the domain comes from the species named
recorded-conditions: Homo sapiens
Would you mind sorting the entries by abundance fitness according to these classes? low-valued: < -0.4; mid-valued: ≥ -0.4 and < -0.1; high-valued: ≥ -0.1

mutation-name	category-label
K24A	high-valued
T39L	low-valued
I9T	high-valued
K26V	mid-valued
L28F	mid-valued
Y38P	low-valued
V18M	high-valued
N10Y	low-valued
K26C	mid-valued
P36L	low-valued
R5D	low-valued
V29E	high-valued
G14M	high-valued
W31V	mid-valued
L32C	mid-valued
V8W	low-valued
V29I	mid-valued
G19R	low-valued
T15A	high-valued
P36H	low-valued
D13G	mid-valued
V29D	high-valued
E30H	mid-valued
H35E	low-valued
P7D	high-valued
L17N	mid-valued
P2S	high-valued
D41N	mid-valued
P23M	low-valued
L32A	low-valued
L32F	mid-valued
Y38C	low-valued
E20V	mid-valued
D27M	low-valued
I6N	low-valued
L34E	high-valued
M42Y	high-valued
P7V	mid-valued
P23E	low-valued
L28M	mid-valued
E20H	low-valued
L28I	mid-valued
L17W	low-valued
P23R	low-valued
K24Y	mid-valued
T15G	high-valued
V29H	high-valued
Y38E	mid-valued
G19I	low-valued
K24I	mid-valued
I9Q	high-valued
L34F	mid-valued
V8S	low-valued
Y38F	mid-valued
V18I	high-valued
V40K	mid-valued
K24Q	mid-valued
G14R	mid-valued
L34M	high-valued
Y38I	low-valued
D27T	low-valued
P7M	mid-valued
V40D	mid-valued
R5M	mid-valued
D13L	low-valued
K33E	high-valued
P23I	low-valued
Y38R	low-valued
A22V	low-valued
V18Q	high-valued
A22W	low-valued
G14D	mid-valued
E30T	high-valued
L11I	high-valued
D3S	mid-valued
P2H	low-valued
T39W	low-valued
D3C	low-valued
K26N	mid-valued
L28H	mid-valued
P23C	low-valued
L28V	mid-valued
K33H	mid-valued
P2I	high-valued
V18C	high-valued
D41M	low-valued
E20K	mid-valued
D21N	high-valued
T37P	mid-valued
K26D	mid-valued

Every entry's value here was drawn from the Human Domainome abundance scans (Beltran et al. 2025).
